# tested-target: recombinant HIV-RT (Human immunodeficiency virus type 1 group M subtype B)
# experiment-summary: Test I (HIVRT (rAdt)), direct inhibition of recombinant HIV-RT
# Format: biochemical
# condition-details: 10 µg/ml
Output: class label from inhibition at 10 µg/mL. Mapping: low = under 10%, middle = from 10% up to 40%, high = 40% and over

Task: Category of FC(F)(F)c1csc(NC(=S)NCCc2ccccc2)n1 , please.
Result: high

Task: Bin? S=C(NCCc1ccccc1)Nc1ccc(Cl)cc1
Result: middle

Task: Into which category would you place Fc1cccc(Cl)c1CCNC(=S)Nc1nccs1 ?
Result: high

Task: Which category fits this record: CCOc1ccccc1CCNC(=S)Nc1nccs1
Result: middle

Task: Pick a category. Item: N#Cc1csc(NC(=S)NCCc2ccccc2)n1
Result: high

Task: Hello team, could you let me know which band the following compound falls into: S=C(NCCc1ccccc1)Nc1nc2c(Cl)cccc2s1
Result: low

Task: Exercise: read the entry Cc1nc(NC(=S)NCCc2ccccc2)sc1C and state which class it falls under.
Result: middle

Task: Where would CC(C)(C)c1csc(NC(=S)NCCc2ccccc2)n1 land among the classes by reported inhibition at 10 µg/mL?
Result: middle

Task: // return the class label for S=C(NCCc1ccccc1)Nc1nc(-c2ccc(Br)cc2)cs1
Result: low

Task: Returns: class label. Input: S=C(NCCc1ccccc1)Nc1nc2ccc(Cl)cc2s1
Result: middle

Task: Just checking, what class would you give Cc1cccc2sc(NC(=S)NCCc3ccccc3)nc12 here?
Result: middle

Task: In plain terms, what class is S=C(NCCc1ccccc1)Nc1ncccn1 ?
Result: low

Task: State the band of S=C(NCCc1ccccc1)Nc1cnccn1
Result: middle

Task: Class for Cc1nnc(NC(=S)NCCc2ccccc2)s1 ?
Result: middle

Task: Classify this compound: CCOc1ccc2nc(NC(=S)NCCc3ccccc3)sc2c1
Result: low

Task: GET /class?item= CCc1nnc(NC(=S)NCCc2ccccc2)s1
Result: middle

Task: Which bin, given its inhibition at 10 µg/mL, does COC(=O)C(=O)c1csc(NC(=S)NCCc2ccccc2)n1 occupy?
Result: middle

Task: Dear colleague, I would appreciate it if you could identify the bin for S=C(NCCc1ccccc1)Nc1ccccc1Cl and reply at your convenience.
Result: high

Task: Sort into band: S=C(NCCc1ccccc1)Nc1nncs1
Result: middle

Task: Which bin should I file S=C(NCCc1ccccc1)Nc1nnc[nH]1 under?
Result: middle

* * *

# tested-target: recombinant HIV-RT (Human immunodeficiency virus type 1 group M subtype B)
# experiment-summary: Test I (HIVRT (rAdt)), direct inhibition of recombinant HIV-RT
# Assay type: biochemical
# condition-details: 1 µg/ml
Grouping rule (inhibition at 1 µg/mL): range A: < 10%; range B: ≥ 10% and < 20%; range C: ≥ 20%

>  <record-smiles>
Cc1cccc2sc(NC(=S)NCCc3ccccc3)nc12

>  <tested-target>
recombinant HIV-RT (Human immunodeficiency virus type 1 group M subtype B)

>  <class>
range B

$$$$
>  <record-smiles>
S=C(NCCc1ccccc1)Nc1cc[nH]n1

>  <tested-target>
recombinant HIV-RT (Human immunodeficiency virus type 1 group M subtype B)

>  <class>
range A

$$$$
>  <record-smiles>
CCOc1ccccc1CCNC(=S)Nc1nccs1

>  <tested-target>
recombinant HIV-RT (Human immunodeficiency virus type 1 group M subtype B)

>  <class>
range C

$$$$

Task: Exam item: assign S=C(NCCc1ccccc1)Nc1nc(-c2ccc(Br)cc2)cs1 to the correct category.
Result: range A

Task: Hey, which category is Cc1nc(NC(=S)NCCc2ccccc2)sc1C in, do you know?
Result: range C

Task: Which of the defined bands does the recorded inhibition at 1 µg/mL of S=C(NCCc1ccccc1)Nc1nncs1 sit within?
Result: range B

Task: Exam item: assign S=C(NCCc1ccccc1)Nc1cnccn1 to the correct category.
Result: range C

Task: Could you tell me which band Cc1nnc(NC(=S)NCCc2ccccc2)s1 belongs to?
Result: range C

Task: Looking at S=C(NCCc1ccccc1)Nc1nc(-c2ccc(Cl)cc2)cs1 , which class would you pick?
Result: range A

Task: State the band of S=C(NCCc1ccccc1)Nc1nc2ccc(Cl)cc2s1
Result: range B

* * *

# experiment-summary: titration pKa (66% DMF/H2O)
metric-name: pKa
Reply with just the number.

Task: I have this compound here, NCCc1c(F)cccc1F [Example 312, 2-(2,6-Difluorophenyl)ethylamine] , and I need its recorded pKa.
Result: 9.06

* * *

# tested-target: recombinant HIV-RT (Human immunodeficiency virus type 1 group M subtype B)
# experiment-summary: Test I (HIVRT (rAdt)), direct inhibition of recombinant HIV-RT
# Type: biochemical
# condition-details: 1 µg/ml
inhibition at 1 µg/mL values, listed per item
The figure you give is taken to be in %; do not add the unit.

>  <record-smiles>
CCOc1ccc2nc(NC(=S)NCCc3ccccc3)sc2c1

>  <inhibition at 1 µg/mL / %>
5

$$$$

// below: inhibition at 1 µg/mL requested for another compound
Task: State the recorded inhibition at 1 µg/mL for this entry: S=C(NCCc1ccccc1)Nc1ncccn1
Result: 12

* * *

# tested-target: recombinant HIV-RT (Human immunodeficiency virus type 1 group M subtype B, UniProt P04585)
# experiment-summary: Test I (HIVRT (rAdt)), direct inhibition of recombinant HIV-RT
# Assay type: biochemical
# condition-details: 0.1 µg/ml
metric-name: inhibition at 0.1 µg/mL (%)
Answer in %, number only, no unit symbol.

>  <record-smiles>
Fc1cccc(Cl)c1CCNC(=S)Nc1nccs1

>  <inhibition at 0.1 µg/mL, %>
43

$$$$
>  <record-smiles>
CCOc1ccc2nc(NC(=S)NCCc3ccccc3)sc2c1

>  <inhibition at 0.1 µg/mL, %>
1

$$$$
>  <record-smiles>
S=C(NCCc1ccccc1)Nc1nc(-c2ccc(Br)cc2)cs1

>  <inhibition at 0.1 µg/mL, %>
1

$$$$
>  <record-smiles>
S=C(NCCc1ccccc1)Nc1nc(-c2ccc(Cl)cc2)cs1

>  <inhibition at 0.1 µg/mL, %>
1

$$$$
>  <record-smiles>
Fc1ccc2nc(NC(=S)NCCc3ccccc3)sc2c1

>  <inhibition at 0.1 µg/mL, %>
33

$$$$

Task: I'm curious: which inhibition at 0.1 µg/mL was measured for S=C(NCCc1ccccc1)Nc1nc2c(Cl)cccc2s1 tested on recombinant HIV-RT (Human immunodeficiency virus type 1 group M subtype B, UniProt P04585)?
Result: 9

* * *

# tested-target: recombinant HIV-RT (Human immunodeficiency virus type 1 group M subtype B)
# experiment-summary: Test I (HIVRT (rAdt)), direct inhibition of recombinant HIV-RT
# Format: biochemical
# condition-details: 0.1 µg/ml
metric-name: inhibition at 0.1 µg/mL (%)
Give the number; % is assumed, so skip it.

>  <record-smiles>
S=C(NCCc1ccccc1)Nc1nnc[nH]1

>  <inhibition at 0.1 µg/mL [%]>
12

$$$$
>  <record-smiles>
S=C(NCCc1ccccc1)Nc1ccc(Cl)cc1

>  <inhibition at 0.1 µg/mL [%]>
4

$$$$
>  <record-smiles>
S=C(NCCc1ccccc1)Nc1ccccc1Cl

>  <inhibition at 0.1 µg/mL [%]>
5

$$$$
>  <record-smiles>
S=C(NCCc1ccccc1)Nc1cc[nH]n1

>  <inhibition at 0.1 µg/mL [%]>
1

$$$$
>  <record-smiles>
CCCCCCCCCCCCCCc1sc(NC(=S)NCCc2ccccc2)nc1-c1ccc(Cl)cc1

>  <inhibition at 0.1 µg/mL [%]>
1

$$$$

Task: Param readout = inhibition at 0.1 µg/mL; param system = recombinant HIV-RT (Human immunodeficiency virus type 1 group M subtype B); param query = S=C(NCCc1ccccc1)NCc1ccco1 ; response: value
Result: 7

Task: Form field: inhibition at 0.1 µg/mL recorded for CCOc1ccccc1CCNC(=S)Nc1nccs1 with recombinant HIV-RT (Human immunodeficiency virus type 1 group M subtype B) (enter value)
Result: 12

Task: Entry Cc1ccnc(NC(=S)NCCc2ccccc2)n1 , system recombinant HIV-RT (Human immunodeficiency virus type 1 group M subtype B): what inhibition at 0.1 µg/mL was measured?
Result: 9

Task: I'm curious: which inhibition at 0.1 µg/mL was measured for FC(F)(F)c1csc(NC(=S)NCCc2ccccc2)n1 tested on recombinant HIV-RT (Human immunodeficiency virus type 1 group M subtype B)?
Result: 63

* * *

# tested-target: recombinant HIV-RT (Human immunodeficiency virus type 1 group M subtype B)
# experiment-summary: Test I (HIVRT (rAdt)), direct inhibition of recombinant HIV-RT
# Format: biochemical
# condition-details: 0.1 µg/ml
metric-name: inhibition at 0.1 µg/mL (%)
Hi! Could you send only the number? It should be in %, unit omitted.

These recorded examples may help you get a feel for the data.
>  <record-smiles>
S=C(NCCc1ccccc1)Nc1ccccc1

>  <tested-target>
recombinant HIV-RT (Human immunodeficiency virus type 1 group M subtype B)

>  <inhibition at 0.1 µg/mL [%]>
1

$$$$
>  <record-smiles>
S=C(NCCc1ccccc1)Nc1ncccn1

>  <tested-target>
recombinant HIV-RT (Human immunodeficiency virus type 1 group M subtype B)

>  <inhibition at 0.1 µg/mL [%]>
5

$$$$
>  <record-smiles>
Cc1nc(NC(=S)NCCc2ccccc2)sc1C

>  <tested-target>
recombinant HIV-RT (Human immunodeficiency virus type 1 group M subtype B)

>  <inhibition at 0.1 µg/mL [%]>
34

$$$$
>  <record-smiles>
CC(C)(C)c1csc(NC(=S)NCCc2ccccc2)n1

>  <tested-target>
recombinant HIV-RT (Human immunodeficiency virus type 1 group M subtype B)

>  <inhibition at 0.1 µg/mL [%]>
8

$$$$

Task: Could you share which inhibition at 0.1 µg/mL value was measured for Cc1nnc(NC(=S)NCCc2ccccc2)s1 ?
Result: 1

Task: Query: inhibition at 0.1 µg/mL; subject: Cc1cccc2sc(NC(=S)NCCc3ccccc3)nc12
Result: 12

Task: Param item = CCc1nnc(NC(=S)NCCc2ccccc2)s1 ; retrieve measured inhibition at 0.1 µg/mL.
Result: 12

Task: Record request: inhibition at 0.1 µg/mL value, item S=C(NCCc1ccccc1)Nc1nc2ccccc2s1
Result: 39

Task: Which inhibition at 0.1 µg/mL is listed for S=C(NCCc1ccccc1)Nc1nncs1 ?
Result: 12

Task: Form field: reported inhibition at 0.1 µg/mL of COC(=O)C(=O)c1csc(NC(=S)NCCc2ccccc2)n1
Result: 1

Task: Given the entry N#Cc1csc(NC(=S)NCCc2ccccc2)n1 , report its measured inhibition at 0.1 µg/mL.
Result: 72

Task: Can you look up the measured inhibition at 0.1 µg/mL of S=C(NCCc1ccccc1)Nc1cnccn1 for me?
Result: 1

Task: Looking for the measured inhibition at 0.1 µg/mL of S=C(NCCc1ccccc1)Nc1nc2ccc(Cl)cc2s1 , can you help?
Result: 12
